SYSTEM: dopamine D-2 receptor (Rattus norvegicus, UniProt P61169)
Sequence (P61169 whole entry): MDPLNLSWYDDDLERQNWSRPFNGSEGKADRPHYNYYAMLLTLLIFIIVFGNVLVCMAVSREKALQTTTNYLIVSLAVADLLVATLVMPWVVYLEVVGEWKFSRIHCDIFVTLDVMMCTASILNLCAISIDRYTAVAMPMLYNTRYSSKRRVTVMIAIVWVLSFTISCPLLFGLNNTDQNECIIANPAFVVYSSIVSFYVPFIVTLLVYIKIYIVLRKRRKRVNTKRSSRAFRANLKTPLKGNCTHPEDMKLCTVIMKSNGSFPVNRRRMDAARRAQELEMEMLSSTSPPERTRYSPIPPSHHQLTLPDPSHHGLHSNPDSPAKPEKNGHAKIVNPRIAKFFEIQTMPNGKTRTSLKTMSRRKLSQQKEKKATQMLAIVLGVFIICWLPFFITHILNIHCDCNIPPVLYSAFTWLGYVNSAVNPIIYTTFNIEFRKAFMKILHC
MEASUREMENT_DESCRIPTION: biochemical
Format: binding
EXPERIMENTAL_CONTEXT: rat caudate, [125I]-p-aminophenylethyl spiroperidol; read-out: D-2 Ki
PARAMETER_MEASURED: Ki (nM)

Consider the reported Ki for these molecules:
{"MOLECULE": "CN(C)CC1OC(CC(C)(C)C)Cc2c1ccc(O)c2O (stereo not shown) [Example 220]", "SYSTEM": "dopamine D-2 receptor (Rattus norvegicus, UniProt P61169)", "Ki (nM)": 3100}
{"MOLECULE": "Oc1ccc2c(c1O)CC(CC1CCCC1)C1=C2CNCC1 (stereo not shown) [Example 209]", "SYSTEM": "dopamine D-2 receptor (Rattus norvegicus, UniProt P61169)", "Ki (nM)": 2800}

(I) CCCCCC(NC(=O)CCl)[C@@H]1Cc2c(ccc(O)c2O)[C@H](CN)O1 (relative stereo) [Example 165]
(II) Oc1ccc2c(c1O)CC(c1ccccc1)C1=C2CNCC1 (stereo not shown) [Example 200]
Query string: Please compare: I and II . Report which one has the smaller Ki value. Write down the label of the entry you select.
Result string: II
(II: 3300 nM, I: 17000 nM)

(A) CCN1CCC2=C(C1)c1ccc(O)c(O)c1CC21CCCCCC1 [Example 251]
(B) NC[C@@H]1O[C@H](c2ccccc2)Cc2c1cc(Br)c(O)c2O (relative stereo) [Example 62]
Query string: // max by Ki over [ A , B ] Answer = label.
Result string: B
(B: 3700 nM, A: 1200 nM)

----------
SYSTEM: dopamine D-2 receptor (Rattus norvegicus, UniProt P61169)
MEASUREMENT_DESCRIPTION: biochemical
Type: binding
EXPERIMENTAL_CONTEXT: rat caudate, [125I]-p-aminophenylethyl spiroperidol; read-out: D-2 Ki
PARAMETER_MEASURED: Ki (µM)

Some compounds with recorded Ki:
{"COMPOUND": "CNC[C@H]1C[C@@H](c2ccccc2)Cc2c1ccc(O)c2O (relative stereo)", "Ki, µM": 12}
{"COMPOUND": "CCOC(=O)CC(=O)NC[C@@H]1Cc2c(ccc(O)c2O)[C@H](CN)O1 (relative stereo)", "Ki, µM": 5.4}
{"COMPOUND": "CNC[C@H]1O[C@@H](Cc2ccc(OC)cc2)Cc2c1ccc(O)c2O (relative stereo)", "Ki, µM": 0.55}
{"COMPOUND": "NC[C@@H]1O[C@H](CC2CCCC2)Cc2c1ccc(O)c2O (relative stereo)", "Ki, µM": 0.81}
{"COMPOUND": "CC(C)C[C@@H]1Cc2c(ccc(O)c2O)[C@H](CN)O1 (relative stereo)", "Ki, µM": 1.4}
{"COMPOUND": "Oc1ccc2c(c1O)CC(c1ccccc1)C1=C2CNCC1 (stereo not shown) [Example 239]", "Ki, µM": 2}
{"COMPOUND": "NC[C@H]1O[C@@H](CCO)Cc2c1ccc(O)c2O (relative stereo)", "Ki, µM": 1.7}
{"COMPOUND": "CCCC1(CCC)Cc2c(ccc(O)c2O)C2=C1CCNC2", "Ki, µM": 3.1}

(A) CN(C)C[C@@H]1O[C@H](C23CC4CC(CC(C4)C2)C3)Cc2c1ccc(O)c2O
(B) Oc1ccc2c(c1O)CC(C1CCCCC1)C1=C2CNCC1 (stereo not shown)
(C) C=CC(C)[C@H]1Cc2c(ccc(O)c2O)[C@@H](CN)O1 (relative stereo)
Query string: Would you mind ranking these compounds by ascending Ki? Enter labels, ranked according to the request.
Result string: C, B, A
(C: 1 µM, B: 1.6 µM, A: 4.6 µM)

----------
SYSTEM: dopamine D-1 receptor (Rattus norvegicus)
EXPERIMENTAL_CONTEXT: read-out: D-1 Ki; rat caudate, [125I]SCH-23982
PARAMETER_MEASURED: Ki (µM)

Take a look at these entries with their results.
{"COMPOUND": "CCCCCC(NC(=O)CCl)[C@@H]1Cc2c(ccc(O)c2O)[C@H](CN)O1 (relative stereo) [Example 165]", "SYSTEM": "dopamine D-1 receptor (Rattus norvegicus)", "Ki [µM]": 1.8}
{"COMPOUND": "CCCCCC(NC(C)=O)[C@@H]1Cc2c(ccc(O)c2O)[C@H](CN)O1 (relative stereo) [Example 162]", "SYSTEM": "dopamine D-1 receptor (Rattus norvegicus)", "Ki [µM]": 0.67}
{"COMPOUND": "NC[C@@H]1O[C@H](CCOCc2ccccc2)Cc2c1ccc(O)c2O (relative stereo) [Example 77]", "SYSTEM": "dopamine D-1 receptor (Rattus norvegicus)", "Ki [µM]": 2.3}

(P) CN1CCC2=C(C1)c1ccc(O)c(O)c1CC2c1ccccc1 (centres unmarked) [Example 246]
(Q) CC(C)OC(=O)CCC(=O)Oc1ccc2c(c1OC(=O)CCC(=O)OC(C)C)CC(c1ccccc1)C=C2CN (centres unmarked) [Example 24]
Query string: Looking at P and Q , which one comes out lower in Ki terms? Please indicate the selected item by its label.
Result string: P
(P: 0.19 µM, Q: 0.9 µM)

----------
SYSTEM: dopamine D-1 receptor (Rattus norvegicus)
MEASUREMENT_DESCRIPTION: biochemical
EXPERIMENTAL_CONTEXT: D-1 Ki, rat caudate, [125I]SCH-23982
pKi: −log10 of the molar value. Where a name gives a salt, the structure may show the parent alone.
PARAMETER_MEASURED: pKi

{"COMPOUND": "CC(C)(C)[C@@H]1Cc2c(ccc(O)c2O)[C@H](CN)C1 (relative stereo)", "EXPERIMENTAL_RESULT": 6.60}

(A) NC[C@H]1Cc2c(ccc(O)c2O)[C@@H](CN)O1 (relative stereo) [Example 154, Dihydrochloride]
(B) CN1CCC2=C(C1)c1ccc(O)c(O)c1CC2C(C)(C)C (stereo not drawn)
Query string: Pick the one with the larger pKi: A vs B Mark your selection by writing its label.
Result string: B
(B: 6.62, A: 5.85)

----------
Test system: dopamine D-1 receptor
EXPERIMENTAL_CONTEXT: dopamine = 100; goldfish retina or rat striatum
PARAMETER_MEASURED: Intrinsic Activity (adenylate cyclase assay)

{"COMPOUND": "NCC1CC2(CCCCC2)Cc2c1ccc(O)c2O (stereo not drawn)", "EXPERIMENTAL_RESULT": 82}
{"COMPOUND": "CCCCCCCC[C@@H]1Cc2c(ccc(O)c2O)[C@H](CN)O1 (relative stereo)", "EXPERIMENTAL_RESULT": 80}
{"COMPOUND": "CN(C)C[C@@H]1O[C@H](C23CC4CC(CC(C4)C2)C3)Cc2c1ccc(O)c2O", "EXPERIMENTAL_RESULT": 79}

----------
SYSTEM: dopamine D-1 receptor (Rattus norvegicus, UniProt P18901)
Sequence (P18901 whole entry): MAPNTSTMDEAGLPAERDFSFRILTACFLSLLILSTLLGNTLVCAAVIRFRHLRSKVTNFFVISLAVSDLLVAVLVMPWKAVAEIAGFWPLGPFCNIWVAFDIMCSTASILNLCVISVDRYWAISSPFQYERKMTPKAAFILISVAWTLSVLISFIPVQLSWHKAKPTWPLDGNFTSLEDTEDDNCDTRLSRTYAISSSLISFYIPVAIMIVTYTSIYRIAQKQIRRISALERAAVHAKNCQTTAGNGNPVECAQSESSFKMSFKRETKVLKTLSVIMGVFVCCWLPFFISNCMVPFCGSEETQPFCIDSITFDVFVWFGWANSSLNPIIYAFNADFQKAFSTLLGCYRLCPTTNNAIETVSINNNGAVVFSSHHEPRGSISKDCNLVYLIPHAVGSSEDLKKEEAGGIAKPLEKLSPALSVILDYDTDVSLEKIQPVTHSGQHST
MEASUREMENT_DESCRIPTION: biochemical
EXPERIMENTAL_CONTEXT: D-1 Ki, rat caudate, [125I]SCH-23982
PARAMETER_MEASURED: Ki (nM)

Known results for compounds:
{"COMPOUND": "O=CO.Oc1ccc2c(c1O)CC(c1ccccc1)C1=C2CNC1 (centres unmarked) [Example 184, Formic Acid Salt]", "Ki [nM]": 70}
{"COMPOUND": "Oc1ccc2c(c1O)CC1(CCCCCC1)C1=C2CNCC1 [Example 206]", "Ki [nM]": 26}
{"COMPOUND": "Oc1ccc2c(c1O)CC(CC1CCCC1)C1=C2CNCC1 (centres unmarked)", "Ki [nM]": 490}

(A) NCC1=CC2(CCCCCC2)Cc2c1ccc(O)c2O
(B) CNCC1OC(CC(C)C)Cc2c1ccc(O)c2O (centres unmarked)
Query string: A or B : whose Ki is greater? # reply format: chosen label
Result string: B
(B: 4000 nM, A: 2000 nM)

----------
Test system: dopamine D-1 receptor
EXPERIMENTAL_CONTEXT: dopamine = 100; goldfish retina or rat striatum
Structures can show the parent of a compound that is named as a salt.
PARAMETER_MEASURED: Intrinsic Activity (adenylate cyclase assay)

{"COMPOUND": "CC(C)OC(=O)CCC(=O)Oc1ccc2c(c1OC(=O)CCC(=O)OC(C)C)CC(c1ccccc1)C=C2CN (stereo not shown)", "EXPERIMENTAL_RESULT": 71}

(1) NCC[C@H]1Cc2c(ccc(O)c2O)[C@@H](CN)O1 (relative stereo)
(2) NCC1=CC(c2ccc3ccccc3c2)Cc2c1ccc(O)c2O (stereo not shown)
Query string: Identify the entry with the larger Intrinsic Activity (adenylate cyclase assay). Options: 1 and 2 Lab note: record the label of whichever item you select.
Result string: 1
(1: 129, 2: 86)

(1) NC[C@H]1Cc2c(ccc(O)c2O)[C@@H](CN)O1 (relative stereo) [Example 154, Dihydrochloride]
(2) NC[C@@H]1O[C@H](C2(c3ccccc3)CCCCC2)Cc2c1ccc(O)c2O (relative stereo)
Query string: Consider entries 1 and 2 . Which has the numerically lower Intrinsic Activity (adenylate cyclase assay)? Kindly state the label of the option you pick.
Result string: 2
